We begin with a simple list: items and their reported apparent KD of K4 kissing-loop reporter.
tested on: K4 kissing-loop RNA reporter; experiment: apparent KD of K4 kissing-loop reporter; higher = weaker reporter binding; conditions: Eterna round: R107; input ligand: FMN 200 uM
I only need the number, in nM, no unit after it.

Before answering, review these 2 worked examples.
input_sequence	recorded_result
UUAGUUGAAAGUGAUACCAGACAAGUUAAGAGAAGAAAUUAAGUUGGAGUGAUGUUCCAAGUCCCUUGGCAGCACAUUGUAAUUU [Same State Theophylline B GF12]	101
UGACUGGACUGAAGGAGCGCUAAACUCCUAGUGAUGUUAGGGAACCGAGACAAAGUCUCGAGGCAGGUAGGUCGCAGUCUAGUCU [FiskerMod 2 - Jieux - Same State - Arginine B]	295

For the next question, use this sequence.
Request body: readout apparent KD of K4 kissing-loop reporter, system K4 kissing-loop RNA reporter, query GAACGGCGGGCGGCCGCCACUGGUAUACGAGUGAUGUUCGGAUAUACGUGAUGUAAGGUAAUUAUCAGGACCGGGUCAGAGCCGG [#16 K4 Tryptophan B Same State] . Return the value.
394

* * *

test system: MS2 coat protein; experiment: apparent KD of MS2 coat protein; higher = weaker reporter binding; conditions: Eterna round: R107; input ligand: arginine 13.2 mM
We begin with a simple list: items and their reported apparent KD of MS2 coat protein.
I only need the number, in nM, no unit after it.

Before answering, review these 2 worked examples.
input_sequence	unit_string	apparent KD of MS2 coat protein
GGAACGAUCACUUCUUUAUCUAAGGCGGAUACCAGUCCUCGGUUUGACCCUUGGCAGCCGACAACAUGAGGAUCACCCAUGUUCU [theeternabot_exclusion_MS2_Theo_A_25]	nM	12.5
CAGAACAUGAGGAUCACCCAUGUCAGGGAUACCAGCUCAGACAUGGGCCCUUGGCAGCUCUGUGGCUGACGAAAGUCAGCAUCUG [#17 SameState-TheophyllineA]	nM	17.5

For the next question, use this sequence.
Request body: readout apparent KD of MS2 coat protein, system MS2 coat protein, query UCACGACGCAACGUGAGAUAAUGAACAGAAGGAGCGAGGAGAGCCUCAGGUAGGUCGCUGACAUGAGGAUCACCCAUGUAUUACA [Same State Arginine A GF6] . Return the value.
63.8

* * *

tested on: K4 kissing-loop RNA reporter; assay: apparent KD of K4 kissing-loop reporter; higher = weaker reporter binding; conditions: Eterna round: R107; input ligand: FMN 200 uM;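 also: bound reporter read as fluorescence of individual clusters on recovered sequencing chips by microscopy, with normalized cluster intensities fitted with a binding model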
We begin with a simple list: items and their reported apparent KD of K4 kissing-loop reporter.
I only need the number, in nM, no unit after it.

So what does the record say about apparent KD of K4 kissing-loop reporter for UUGGAAAUCAGAAGGAGCGUCUAAAAUGAAGGAACCAGUGAUGUUGGUUUUAUUUAAUGAAGACAGGUAGGUCGCUGAAUUUUUA [Same State Arginie B GF 18] ?
91.4

So what does the record say about apparent KD of K4 kissing-loop reporter for AAUAACUAGUAUAUUUGUAAUAAAACAGAUACCAGUGAUAAUAAACACCCUUGGCAGCUGAUCGAGUGAUGUUCGUUUAUUUUAA [JR_SSTheophyA_Sub004] ?
102

So what does the record say about apparent KD of K4 kissing-loop reporter for AAUAAAAUCACGGCCGCCACUGAUUUUUUUAUUAGGAGUGAUGUUCCUAUGACUAUAUUAUUUAACAGGACCGGGUGAAUAUUUA [JR_SSTryptoB_Sub023] ?
79.6
